Biological target: … (SEQ ID NO: 1)-HLA-A*02 complex (human)
Assay: SPR (BIAcore) or BLI (Octet) per Example 3, immobilised biotinylated pHLA, 25 C
Listing of recorded pKd by entry.
Units for pKd: none; it is -log10 of a concentration expressed in mol/L.

Study these solved cases before continuing.
binder="ImmTAC molecule a79b67 (TCR-anti-CD3 fusion) (TCR, part only; not given: anti-CD3 scFv, linker, constant regions, not shown: a dimerising Fc or GST) TCR alpha, part: GDAKTTQPNSMESNEEEPVHLPCNHSTISGTDYIHWYRQLPSQGPEYVIHGLTSNVNNRMASLAIAEDRKSSTLILHRATLRDAAVYYCILILGHSRLGNYIATFGKGTKLSVIP TCR beta, part: DGGITQSPKYLFRKEGQNVTLSCEQNLNHDAMYWYRQDPGQGLRLIYYSQIMGDEQKGDIAEGYSVSREKKESFPLTVTSAQKNPTAFYLCASSWWTSGSAPIRFGPGTRLTVT" observation_type=pKd result_number=10.33
binder="ImmTAC molecule a79b77 (TCR-anti-CD3 fusion) (TCR, part only; not given: anti-CD3 scFv, linker, constant regions, not shown: a dimerising Fc or GST) TCR alpha, part: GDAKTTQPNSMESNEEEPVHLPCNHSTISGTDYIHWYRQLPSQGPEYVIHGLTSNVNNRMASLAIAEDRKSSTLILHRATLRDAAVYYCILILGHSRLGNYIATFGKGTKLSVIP TCR beta, part: DGGITQSPKYLFRKEGQNVTLSCEQNLNHDAMYWYRQDPGQGLRLIYYSQIMGDEQKGDIAEGYSVSREKKESFPLTVTSAQKNPTAFYLCASSWWTGGAAPIRFGPGTRLTVT" observation_type=pKd result_number=10.11

As a next step, examine the binder that follows.
Task item: Please give the measured pKd for this binder: ImmTAC molecule a79b75 (TCR-anti-CD3 fusion) (TCR, part only; not given: anti-CD3 scFv, linker, constant regions, not shown: a dimerising Fc or GST) TCR alpha, part: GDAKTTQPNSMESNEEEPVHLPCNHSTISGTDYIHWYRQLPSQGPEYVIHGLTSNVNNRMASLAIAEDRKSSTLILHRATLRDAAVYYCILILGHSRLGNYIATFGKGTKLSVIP TCR beta, part: DGGITQSPKYLFRKEGQNVTLSCEQNLNHDAMYWYRQDPGQGLRLIYYSQIMGDEQKGDIAEGYSVSREKKESFPLTVTSAQKNPTAFYLCASSWWTGGSAPISFGPGTRLTVT
Reply: 10.24
